system: Escherichia coli TOP10; test: shrunken log2 fold change of peptide-encoding DNA abundance (4.5 h post-induction vs induction); higher = less antimicrobial activity (less host growth inhibition); conditions: time post-induction: 4.5 h; library: site-saturation at positions 5, 18, 19, 20;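 also: peptides expressed intracellularly from a pBAD plasmid library in pooled LB shake-flask culture, induced with 0.3% L-arabinose, DNA abundance read by NGS, three biological replicates, DESeq2 with apeglm shrinkage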
propertyLabel: shrunken log2 fold change
Number, no unit, nothing else.

Query RRIRERPPRLPRPRPRPKPMPRP yields shrunken log2 fold change of 0.21

// recorded shrunken log2 fold change for RRIRHRPPRLPRPRPRPKSKPRP : -0.598

Documented shrunken log2 fold change of RRIRGRPPRLPRPRPRPPCLPRP : 0.503

For RRIRRRPPRLPRPRPRPCSKPRP the sequence record lists shrunken log2 fold change as -0.123

shrunken log2 fold change reported for this sequence RRIRHRPPRLPRPRPRPKIRPRP : -0.156

For this sequence ( RRIRMRPPRLPRPRPRPPSFPRP ), measured shrunken log2 fold change is -0.0206

Field shrunken log2 fold change (entry RRIRYRPPRLPRPRPRPPIAPRP ) reads 0.00572

Lab book: shrunken log2 fold change of RRIRNRPPRLPRPRPRPPYWPRP noted as 0.0294

RRIRFRPPRLPRPRPRPRNCPRP yielded shrunken log2 fold change of -0.132

Value of measured shrunken log2 fold change for the entry RRIRQRPPRLPRPRPRPMRLPRP : 0.0296

Reported shrunken log2 fold change of RRIRKRPPRLPRPRPRPMKDPRP : 0.618

Entry RRIRWRPPRLPRPRPRPNVHPRP ; shrunken log2 fold change = 0.0272

RRIRARPPRLPRPRPRPHYYPRP has a reported shrunken log2 fold change of -0.146

For reference, reported shrunken log2 fold change for RRIRPRPPRLPRPRPRPFSRPRP stands at -0.099

shrunken log2 fold change for RRIRLRPPRLPRPRPRPDNRPRP is -0.0526

Per the record, RRIRRRPPRLPRPRPRPTEDPRP has shrunken log2 fold change of 0.477

// field: shrunken log2 fold change; key: RRIRTRPPRLPRPRPRPMRKPRP ; value = 0.375

Lab note: measured shrunken log2 fold change of RRIRHRPPRLPRPRPRPQINPRP was -0.827

Short answer for RRIRMRPPRLPRPRPRPCGRPRP : shrunken log2 fold change was 1.09

Please fill in: shrunken log2 fold change reported for RRIRLRPPRLPRPRPRPASWPRP = 0.454

shrunken log2 fold change in this record for RRIRGRPPRLPRPRPRPQNRPRP : 0.0342

What the record says about RRIRKRPPRLPRPRPRPQQMPRP : shrunken log2 fold change is 0.313

// sample RRIRVRPPRLPRPRPRPSYQPRP , its shrunken log2 fold change was -0.34

Reported shrunken log2 fold change for RRIRARPPRLPRPRPRPDPTPRP was 0.447

Summary for this sequence, RRIRSRPPRLPRPRPRPWQYPRP : shrunken log2 fold change is 0.0433

Summary for this sequence, RRIRLRPPRLPRPRPRPAAMPRP : shrunken log2 fold change is 0.158

Per the records, this sequence ( RRIRTRPPRLPRPRPRPSAYPRP ) has shrunken log2 fold change equal to -0.144

# shrunken log2 fold change of RRIRPRPPRLPRPRPRPTHHPRP = 0.264

Item: RRIRMRPPRLPRPRPRPMCWPRP | shrunken log2 fold change: 2.09

The measured shrunken log2 fold change associated with RRIRERPPRLPRPRPRPEVCPRP reads -0.0484

Sample RRIRPRPPRLPRPRPRPVMKPRP ; shrunken log2 fold change observed: -0.00931

shrunken log2 fold change recorded for this sequence, RRIRWRPPRLPRPRPRPVEPPRP , is 0.546

Please fill in: shrunken log2 fold change reported for RRIRSRPPRLPRPRPRPCYLPRP = -0.586

Value of measured shrunken log2 fold change for the entry RRIRKRPPRLPRPRPRPAKHPRP : 0.0854

Recorded result, RRIRRRPPRLPRPRPRPCLVPRP , shrunken log2 fold change: -0.096

So for RRIRCRPPRLPRPRPRPWQYPRP , the logged shrunken log2 fold change turned out to be 0.0686

Record RRIRIRPPRLPRPRPRPIKSPRP , field shrunken log2 fold change: -0.462

The sequence identified as RRIRWRPPRLPRPRPRPLSIPRP registered its shrunken log2 fold change at -0.0528

shrunken log2 fold change reading for RRIRQRPPRLPRPRPRPYYVPRP : -0.0108

What the record says about RRIRVRPPRLPRPRPRPYITPRP : shrunken log2 fold change is -0.77

RRIRLRPPRLPRPRPRPGKTPRP has a reported shrunken log2 fold change of 0.086

Documented shrunken log2 fold change of RRIRVRPPRLPRPRPRPQIQPRP : -0.034

The reported shrunken log2 fold change of the sequence RRIRPRPPRLPRPRPRPDWGPRP was 0.107

shrunken log2 fold change reported for this sequence RRIRARPPRLPRPRPRPFWKPRP : -0.13

shrunken log2 fold change reported for this sequence RRIRERPPRLPRPRPRPRQVPRP : -0.0483

// sample RRIRARPPRLPRPRPRPTTCPRP , its shrunken log2 fold change was 0.0733

Field shrunken log2 fold change (entry RRIRLRPPRLPRPRPRPQQDPRP ) reads -0.29

Reported shrunken log2 fold change of RRIRRRPPRLPRPRPRPDFEPRP : 0.552

Entry RRIRVRPPRLPRPRPRPLLHPRP , shrunken log2 fold change reported as -0.114

Just so you know, measured shrunken log2 fold change for RRIRNRPPRLPRPRPRPCKLPRP came out at -0.362

What the record says about RRIRPRPPRLPRPRPRPRSVPRP : shrunken log2 fold change is 0.0746

Lab book: shrunken log2 fold change of RRIRIRPPRLPRPRPRPNWAPRP noted as 0.0373

Entry RRIRLRPPRLPRPRPRPSATPRP — recorded shrunken log2 fold change = 0.321

Notebook: RRIRVRPPRLPRPRPRPYAQPRP , shrunken log2 fold change read as 0.0393

Lab note: measured shrunken log2 fold change of RRIRPRPPRLPRPRPRPMIGPRP was 0.00964

So for RRIRMRPPRLPRPRPRPATSPRP , the logged shrunken log2 fold change turned out to be 0.654

Lab book: shrunken log2 fold change of RRIRKRPPRLPRPRPRPTNLPRP noted as -0.0903

Recorded shrunken log2 fold change (sequence RRIRSRPPRLPRPRPRPISTPRP ): -0.102

The sequence identified as RRIRKRPPRLPRPRPRPMKPPRP registered its shrunken log2 fold change at 0.145

Reported shrunken log2 fold change ( RRIRVRPPRLPRPRPRPPNRPRP ) = 0.144

// shrunken log2 fold change value for RRIRLRPPRLPRPRPRPCKMPRP : -0.503

Data point: RRIRCRPPRLPRPRPRPYCWPRP ; shrunken log2 fold change = -0.331

Field shrunken log2 fold change (entry RRIRYRPPRLPRPRPRPYHFPRP ) reads -0.535
